Read-out: Keratin 19 (KRT19), KRT19 (gene 3880)
ASSAY_INFO: LTEA_HepaRG_KRT19: Life Technologies and Expression Analysis (LTEA) Assay for Keratin 19 (KRT19) using HepaRG (AID 2283512)
EXPERIMENTAL_CONTEXT: mRNA level, 48 h; actives raise or lower the signal
Active and inactive are the calls of the source. The calls were made as follows: active = hit-call score of the fitted dose curve at least 0.9, where 1 is the maximum; inactive = score below 0.9.
QUANTITY: AC50

{"columns": ["COMPOUND", "READOUT_VALUE"],
 "data": [
  ["CCNc1nc(Cl)nc(NC(C)C)n1", "26.1 µM (active)"],
  ["COc1cnc(OC)n2nc(NS(=O)(=O)c3c(OCC(F)F)cccc3C(F)(F)F)nc12", "inactive"],
  ["CS/C(C)=N/OC(=O)N(C)SN(C)C(=O)O/N=C(\\C)SC", "inactive"],
  ["Cc1c(F)c(F)c(COC(=O)C2C(/C=C(\\Cl)C(F)(F)F)C2(C)C)c(F)c1F (configuration not stated)", "inactive"],
  ["CC1COC(Cn2cncn2)(c2ccc(Oc3ccc(Cl)cc3)cc2Cl)O1 (configuration not stated)", "12.9 µM (active)"],
  ["CCCC1COC(Cn2cncn2)(c2ccc(Cl)cc2Cl)O1 (configuration not stated)", "1.12 µM (active)"],
  ["COP(N)(=O)SC (configuration not stated)", "inactive"],
  ["N#Cc1nn(-c2c(Cl)cc(C(F)(F)F)cc2Cl)c(N)c1S(=O)C(F)(F)F (configuration not stated)", "12.6 µM (active)"],
  ["Oc1ccccc1-c1ccccc1", "inactive"],
  ["CC(C)Oc1cc(-n2nc(C(C)(C)C)oc2=O)c(Cl)cc1Cl", "50 µM (active)"],
  ["Fc1ccc(Oc2ccnc3cc(Cl)cc(Cl)c23)cc1", "50 µM (active)"],
  ["CCCCOC(=O)c1ccccc1C(=O)OCCCC", "inactive"]
]}

* * *

ASSAY_SYSTEM: human CYP2A6, CYP2A6 (gene 1548)
ASSAY_INFO: NVS_ADME_hCYP2A6: NovaScreen (NVS) CYP450-related Enzyme Activity (ADME) Assay for human CYP2A6 (AID 2283099)
Results filed as inconclusive are left out. Active and inactive are the calls of the source. The calls were made as follows: active = hit-call score of the fitted dose curve at least 0.9, where 1 is the maximum; inconclusive = response in the unintended direction; inactive = score below 0.9.
Classes used: active, inactive

{"columns": ["COMPOUND", "GROUP_LABEL"],
 "data": [
  ["OC(c1ccc(Cl)cc1)(c1cncnc1)c1ccccc1Cl (centres undefined)", "active"],
  ["CCOP(=S)(OCC)SCn1c(=O)oc2cc(Cl)ccc21", "active"],
  ["CCOC(=O)CC(SP(=S)(OC)OC)C(=O)OCC (centres undefined)", "active"],
  ["C=CCC1=C(C)C(OC(=O)C2C(C=C(C)C)C2(C)C)CC1=O (centres undefined)", "inactive"]
]}

* * *

ASSAY_INFO: CCTE_Mundy_HCI_Cortical_Synap_Neur_Matur_NeuriteCount: CCTE's Synaptogenesis and Neurite Maturation Assay in rat cortical cells for Neurite Count, Mundy Lab (AID 2284222)
Activity calls are given as the source filed them. Rule for the calls: active = hit-call score of the fitted dose curve at least 0.9, where 1 is the maximum; inactive = score below 0.9.
Classes used: active, inactive

{"columns": ["COMPOUND", "GROUP_LABEL"],
 "data": [
  ["CCOC(=O)CC(SP(=S)(OC)OC)C(=O)OCC (stereo unspecified)", "inactive"],
  ["CNC(=O)ON=CC(C)(C)SC", "inactive"],
  ["C=CCC1=C(C)C(OC(=O)C2C(C=C(C)C)C2(C)C)CC1=O (stereo unspecified)", "inactive"],
  ["Cc1ccc(-c2c(Cl)nc(C#N)n2S(=O)(=O)N(C)C)cc1", "active"],
  ["CN(C)C(=S)SSC(=S)N(C)C", "active"],
  ["CCCCNC(=O)n1c(NC(=O)OC)nc2ccccc21", "inactive"]
]}
